- System: Tubulin alpha chain (Sus scrofa) (UniProt P02550)
- Sequence (P02550 whole entry, looked up): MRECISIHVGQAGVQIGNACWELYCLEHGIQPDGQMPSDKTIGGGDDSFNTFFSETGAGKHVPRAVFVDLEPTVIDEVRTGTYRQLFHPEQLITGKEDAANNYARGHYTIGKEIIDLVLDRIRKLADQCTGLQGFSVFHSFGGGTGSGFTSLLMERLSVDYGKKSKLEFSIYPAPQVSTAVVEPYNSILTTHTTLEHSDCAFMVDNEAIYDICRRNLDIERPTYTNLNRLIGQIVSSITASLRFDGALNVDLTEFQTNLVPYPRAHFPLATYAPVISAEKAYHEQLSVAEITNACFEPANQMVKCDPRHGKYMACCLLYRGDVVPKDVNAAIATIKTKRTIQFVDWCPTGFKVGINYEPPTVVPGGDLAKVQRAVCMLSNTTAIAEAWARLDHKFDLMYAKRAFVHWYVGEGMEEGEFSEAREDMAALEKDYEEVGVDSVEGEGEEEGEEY
- Test details: Effective dose which causes polymerization of 50% of the tubulin present at 37 degree C in Microtubule assembly assay
- Format: functional

# Molecule, System, Readout relation, ED50 [µM]
rows = [
    ("CC(=O)O[C@H]1C(=O)[C@@]2(C)[C@H]([C@H](OC(=O)c3ccccc3)[C@]3(O)C[C@H](OC(=O)[C@H](O)[C@@H](NC(=O)c4ccccc4)c4ccccc4)C(C)=C1C3(C)C)[C@]1(OC(C)=O)CO[C@@H]1C[C@@H]2O [PACLITAXEL]", "Tubulin alpha chain (Sus scrofa) (UniProt P02550)", "=", 0.4),
    ("CC(=O)O[C@@H]1C2=C(C)[C@@H](OC(=O)[C@H](O)[C@@H](NC(=O)c3ccccc3)c3ccccc3)C[C@@](O)([C@@H](OC(=O)c3ccccc3)C3[C@@](C)(CC[C@H]4OC[C@@]34OC(C)=O)[C@H]1OC(=O)CCC(=O)OC[C@H]1O[C@@H](n3cc(Br)c(=O)[nH]c3=O)[C@H](O)[C@@H]1O)C2(C)C (stereo not given in full)", "Tubulin alpha chain (Sus scrofa) (UniProt P02550)", ">", 15),
    ("CC(=O)O[C@@H]1C2=C(C)[C@@H](OC(=O)[C@H](O)[C@@H](NC(=O)c3ccccc3)c3ccccc3)C[C@@](O)([C@@H](OC(=O)c3ccccc3)C3[C@@](C)(CC[C@H]4OC[C@@]34OC(C)=O)[C@H]1OC(=O)CCC(=O)OC[C@H]1O[C@@H](n3cc(C)c(=O)[nH]c3=O)C[C@@H]1N=[N+]=[N-])C2(C)C (stereo not given in full)", "Tubulin alpha chain (Sus scrofa) (UniProt P02550)", ">", 20),
    ("CC(=O)O[C@@H]1C2=C(C)[C@@H](OC(=O)[C@H](O)[C@@H](NC(=O)c3ccccc3)c3ccccc3)C[C@@](O)([C@@H](OC(=O)c3ccccc3)C3[C@@](C)(CC[C@H]4OC[C@@]34OC(C)=O)[C@H]1OC(=O)CCC(=O)OC[C@H]1O[C@@H](n3cnc4c(Cl)ncnc43)[C@H](O)[C@@H]1O)C2(C)C (stereo not given in full)", "Tubulin alpha chain (Sus scrofa) (UniProt P02550)", ">", 15),
    ("CC(=O)O[C@@H]1C2=C(C)[C@@H](OC(=O)[C@H](O)[C@@H](NC(=O)c3ccccc3)c3ccccc3)C[C@@](O)([C@@H](OC(=O)c3ccccc3)C3[C@@](C)(CC[C@H]4OC[C@@]34OC(C)=O)[C@H]1OC(=O)CCC(=O)OC[C@H]1O[C@@H](n3ccc(NC(=O)c4ccccc4)nc3=O)C[C@@H]1O)C2(C)C (stereo not given in full)", "Tubulin alpha chain (Sus scrofa) (UniProt P02550)", "=", 0.9),
]

* * *

Listed below: Ratio values for each entry.
- System: ECa-109 cell line
- Test details: Cytotoxicity ratio was evaluated against tumor cell line ECa-109 (Human esophagus cancer) after 72 hr incubation relative to paclitaxel (ED50 = […])
- Assay type: functional

# Compound, Ratio
measured = [
    ("CC(=O)O[C@@H]1C2=C(C)[C@@H](OC(=O)[C@H](O)[C@@H](NC(=O)c3ccccc3)c3ccccc3)C[C@@](O)([C@@H](OC(=O)c3ccccc3)C3[C@@](C)(CC[C@H]4OC[C@@]34OC(C)=O)[C@H]1OC(=O)CCC(=O)OC[C@H]1O[C@@H](n3cc(C)c(=O)[nH]c3=O)C[C@@H]1N=[N+]=[N-])C2(C)C (some centres undefined)", 3.54),
    ("CC(=O)O[C@@H]1C2=C(C)[C@@H](OC(=O)[C@H](O)[C@@H](NC(=O)c3ccccc3)c3ccccc3)C[C@@](O)([C@@H](OC(=O)c3ccccc3)C3[C@@](C)(CC[C@H]4OC[C@@]34OC(C)=O)[C@H]1OC(=O)CCC(=O)OC[C@H]1O[C@@H](n3cc(Br)c(=O)[nH]c3=O)[C@H](O)[C@@H]1O)C2(C)C (some centres undefined)", 0.16),
    ("CC(=O)O[C@@H]1C2=C(C)[C@@H](OC(=O)[C@H](O)[C@@H](NC(=O)c3ccccc3)c3ccccc3)C[C@@](O)([C@@H](OC(=O)c3ccccc3)C3[C@@](C)(CC[C@H]4OC[C@@]34OC(C)=O)[C@H]1OC(=O)CCC(=O)OC[C@H]1O[C@@H](n3ccc(NC(=O)c4ccccc4)nc3=O)C[C@@H]1O)C2(C)C (some centres undefined)", 1.03),
    ("CC(=O)O[C@@H]1C2=C(C)[C@@H](OC(=O)[C@H](O)[C@@H](NC(=O)c3ccccc3)c3ccccc3)C[C@@](O)([C@@H](OC(=O)c3ccccc3)C3[C@@](C)(CC[C@H]4OC[C@@]34OC(C)=O)[C@H]1OC(=O)CCC(=O)OC[C@H]1O[C@@H](n3cnc4c(Cl)ncnc43)[C@H](O)[C@@H]1O)C2(C)C (some centres undefined)", 0.18),
]
